Values compiled from PubChem BioAssay AID738.

Please provide measured inhibition for the entries that follow.
test: growth inhibition of yeast control strain, primary screen, counter-screen for post-Golgi transport modulator project (AID 738); conditions: efflux-deficient yeast background strain, growth absorbance A615, 16 h; at 10 µM; stronger effect = higher value
Out of some 98,000 compounds screened, about 4,900 (5%) were called active. The sample as a whole holds a higher share of actives than the screen did.
I only need the number, in %, no unit after it.

// inhibition lookup, key: CC(=O)Oc1ccc2c(C)c(CC(C)O)c(=O)oc2c1 (centres undefined) 9.1

// next record Cc1ccc2c(c1)N(CC(=O)N1CCCc3ccccc31)C(=O)C(C)O2 (centres undefined) 5.45

// next record O=C(Cc1cccs1)N1CCCC(c2nc(-c3ccc(S(=O)(=O)N4CCCC4)cc3)no2)C1 (centres undefined) 2.8

// next record Nc1nc(Br)c2ccccc2c1-c1ccc(F)cc1 11.8

// next record CCn1c(C)nc2c1C(=O)c1ccccc1C2=O 4.03

// next record COC(=O)c1c(CCl)noc1C(=O)NC(C)C -6.4

// next record COCCCNCC(=O)Nc1sc(C)c(C)c1C(=O)OC 5.81

// next record Cc1nc(Nc2ccc3c(c2)OCCO3)c2nnn(Cc3ccccc3Cl)c2n1 57.3

// next record CCC1(CC)NC(=O)N(CC(=O)OCC(=O)Nc2ccc(C(F)(F)F)cc2)C1=O 5.34

// next record C#CCNc1nc(C(C)C)nc2c1nnn2Cc1ccccc1F 22.2

// next record c1ccc(C2CCC(N3CCC(N4CCCCC4)CC3)CC2)cc1 (centres undefined) 1.52

// next record Clc1ccc(-c2nnc(-c3ccccc3)nc2N2CCSCC2)cc1 51

// next record O=c1cc(Cn2nnc(-c3ccc(Cl)cc3)n2)nc2sccn12 11.5

// next record COC(=O)C(NC(=O)c1ccc(OC)cc1)(Nc1ncc(S(=O)(=O)c2ccc([N+](=O)[O-])cc2)s1)C(F)(F)F (centres undefined) 6.12

// next record C=CCCC(=O)Nc1nc(C)c(-c2csc(Nc3ccc(Cl)cc3)n2)s1 50.3

// next record O=C(Nc1ccccc1N1CCCCC1)c1ccc2nccnc2c1 16.6

// next record CCOC(=O)C1(S(=O)(=O)c2ccc(Cl)cc2)CCN(Cc2ccccc2)CC1 4.55

// next record CC(C)C(=O)OCC(=O)Nc1ccc2c(c1)CCC2 3.52

// next record CCOc1ccc(N(CC(=O)NC2CCCCCC2)S(=O)(=O)c2c(C)[nH]c(=O)[nH]c2=O)cc1 5.91

// next record O=C(CCNS(=O)(=O)c1ccccc1C(F)(F)F)NCc1ccc2c(c1)OCO2 -1.95

// next record CCOC(=O)c1cnc(SC)nc1Sc1ccc(Cl)cc1Cl 3.77

// next record Cc1ccc(S(=O)(=O)N(C)CC(=O)N2CCc3ccccc32)cc1 2.58

// next record CC(C)CCn1c(CN(C)Cc2ccccc2)nc2c1c(=O)n(C)c(=O)n2C 9.18

// next record CCCCN=C1N/C(=C\c2ccco2)C(=O)N1c1ccccc1 13.4

// next record CC(=O)Nc1cc2ccc(OC(C)=O)cc2oc1=O -1.59

// next record O=C(Nc1ccccc1N1CCCCC1)c1cccc(F)c1 31.6

// next record Cn1c2c(c(=O)n(C)c1=O)[C@@H]1c3c(ccc4ccccc34)OC[C@@H]1CO2 3.76

// next record Cc1ccc(CNC(=O)c2ccccc2CCc2ccccc2)cc1 35.3

// next record O=C(c1cccs1)N1CCCC(c2nc(-c3ccc(F)cc3)no2)C1 (centres undefined) 43.9

// next record O=C(Nc1ccccc1N1CCN(c2ccccc2)CC1)c1cccc(F)c1 15.4

// next record O=C(Nc1ccc(Br)cc1)C1CCC(=O)N1Cc1ccccc1Cl (centres undefined) -0.46

// next record COc1cc(OC)c(C(=O)Nc2ccc(N(C)C)cc2)cc1OC 27.7

// next record COc1ccc(/C=C(\NC(=O)c2ccc(OC)c(OC)c2)C(=O)NCCc2c[nH]c3ccccc23)cc1 6.34

// next record Cc1cc(OC(=O)c2c(Cl)cccc2Cl)nc(C)n1 3.63

// next record O=C(CN1CCN(S(=O)(=O)c2ccc(Cl)s2)CC1)NCc1ccc(Cl)cc1 15.8

// next record O=c1onc(-c2cccs2)n1Cc1ccccc1 2.85

// next record Cc1c(C(=O)N2CC(C)OC(C)C2)sc2nc(-c3ccccc3)cn12 (centres undefined) 7.66

// next record CC(C)c1ccc(-c2noc(C3CCCN(S(C)(=O)=O)C3)n2)cc1 (centres undefined) -5.28

// next record Cc1ccc(-c2nnc(C)c(N3CC(C)OC(C)C3)n2)cc1 (centres undefined) 20.1

// next record O=C(NC(Nc1nc2ccc([N+](=O)[O-])cc2s1)(C(F)(F)F)C(F)(F)F)c1ccccc1 89.5

// next record CCCCCCC(=O)Nc1nc(C)c(-c2csc(Nc3cc(Cl)ccc3OC)n2)s1 0.3

// next record CN(Cc1ccccc1)C(=O)CCNC(=O)Cn1cnc2ccccc2c1=O 32.8

// next record CCCCNC(=O)C(=O)c1ccccc1NC(C)=O 7.01

// next record Cc1nnc(SCC(=O)N/N=C/c2cn(-c3ccccc3)nc2-c2ccc(F)cc2)n1-c1ccccc1 4.61
